TARGET_SYSTEM: T1, recombinant human HER2 extracellular domain protein (human, UniProt P04626 23-652)
T1 construct: range 23-652; Range is printed for the immunogen/panning protein; also called ErbB2; recombinant HER2 protein
TEST_NAME: BLI, Protein A capture
MEASURED_ENDPOINT: kon (M⁻¹ s⁻¹)
Field: numeric (M⁻¹ s⁻¹). Do not append units.

>>> val("Hu2126-H2K1-L71-H72b-Mu12 (antibody, IgG1, V domains shown, IgG1/Cκ; also called 7172b-Mu12) VH: QVQLVQSGSELKKPGASVKVSCKASGYTFTDYSMHWVRQAPGQGLEWMGWINTGTGEPTYADDFKGRFTISRDTSKSTAYLQISSLKAEDTAVYYCVRVGRYDYAMDYWGQGTTVTVSS VL: DIQMTQSPSSLSASVGDRVTITCRASQDVYTAVAWYQQKPGKAPKLLINEASSRPTGVPSRFSGSGSGTDFTLTISSLQPEDFATYYCQQYYSTPPTFGGGTKVEIK")
78300
>>> val("Hu2126-H2K1-L71-H72b-Mu19 (antibody, IgG1, V domains shown, IgG1/Cκ; also called 7172b-Mu19) VH: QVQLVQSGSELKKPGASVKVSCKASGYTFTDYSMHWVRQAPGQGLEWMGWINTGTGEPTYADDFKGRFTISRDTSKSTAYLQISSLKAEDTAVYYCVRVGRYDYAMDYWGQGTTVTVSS VL: DIQMTQSPSSLSASVGDRVTITCRASQDVYTAVAWYQQKPGKAPKLLINYASSRPTGVPSRFSGSGSGTDFTLTISSLQPEDFATYYCQQYYSTPPTFGGGTKVEIK")
108000

Now for a further binder.
Any idea what kon was measured for Hu2126-H2K1-L71-H72b-Mu13 (antibody, IgG1, V domains shown, IgG1/Cκ; also called 7172b-Mu13) VH: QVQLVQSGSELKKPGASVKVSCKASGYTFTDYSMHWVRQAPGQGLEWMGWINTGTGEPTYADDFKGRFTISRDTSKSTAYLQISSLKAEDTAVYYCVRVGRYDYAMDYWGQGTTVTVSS VL: DIQMTQSPSSLSASVGDRVTITCRASQDVYTAVAWYQQKPGKAPKLLINKASSRPTGVPSRFSGSGSGTDFTLTISSLQPEDFATYYCQQYYSTPPTFGGGTKVEIK ?
97800

// provenance: patent EP4725969A1
